experiment: PK protocol, oral administration; type: in vivo, male Sprague Dawley rats; conditions: male, Sprague Dawley, plasma, rat, dose (mg/kg)
Counter-ions that a name gives are not always drawn.
The label depends only on bioavailability: 1 if it is at least 90%, -1 if it is smaller.

CC(c1cc(S(=O)(=O)NC(=O)Nc2c3c(cc4c2CCC4)CCC3)nn1C)N1CCC1 (centres unmarked) [Example 76]	-1

Asked: Would you say CN(C)Cc1cc(S(=O)(=O)NC(=O)Nc2c3c(cc4c2CCC4)CCC3)nn1C1CC1 [Example 7] shows bioavailability at minimum 90%?
Given back: 1

Asked: Also CC(C)c1cc(Cl)cc(C(C)C)c1NC(=O)NS(=O)(=O)c1cc(CN(C)C)n(C)n1 [Example 93, Sodium Salt] , if possible.
Given back: -1

Asked: Also CNCc1cc(S(=O)(=O)NC(=O)Nc2c3c(cc4c2CCC4)CCC3)nn1C(C)C [Example 50] , if possible.
Given back: -1

----------
biological target: NLRP3 (Homo sapiens, UniProt Q96P20); test: Human whole blood IL1β release assay (LPS + nigericin, AlphaLisa IL-1β); format: cell-based; set-up: Human whole blood in Li-heparin tubes was obtained from healthy donors from a volunteer donor panel; from tissue; host or cells: human whole blood from healthy donors; details: NLRP3 inhibitory activity, 1 μg/ml LPS, 10 μM nigericin, IL-1β release, read-out: HWB IC50
Sequence (Q96P20 whole entry): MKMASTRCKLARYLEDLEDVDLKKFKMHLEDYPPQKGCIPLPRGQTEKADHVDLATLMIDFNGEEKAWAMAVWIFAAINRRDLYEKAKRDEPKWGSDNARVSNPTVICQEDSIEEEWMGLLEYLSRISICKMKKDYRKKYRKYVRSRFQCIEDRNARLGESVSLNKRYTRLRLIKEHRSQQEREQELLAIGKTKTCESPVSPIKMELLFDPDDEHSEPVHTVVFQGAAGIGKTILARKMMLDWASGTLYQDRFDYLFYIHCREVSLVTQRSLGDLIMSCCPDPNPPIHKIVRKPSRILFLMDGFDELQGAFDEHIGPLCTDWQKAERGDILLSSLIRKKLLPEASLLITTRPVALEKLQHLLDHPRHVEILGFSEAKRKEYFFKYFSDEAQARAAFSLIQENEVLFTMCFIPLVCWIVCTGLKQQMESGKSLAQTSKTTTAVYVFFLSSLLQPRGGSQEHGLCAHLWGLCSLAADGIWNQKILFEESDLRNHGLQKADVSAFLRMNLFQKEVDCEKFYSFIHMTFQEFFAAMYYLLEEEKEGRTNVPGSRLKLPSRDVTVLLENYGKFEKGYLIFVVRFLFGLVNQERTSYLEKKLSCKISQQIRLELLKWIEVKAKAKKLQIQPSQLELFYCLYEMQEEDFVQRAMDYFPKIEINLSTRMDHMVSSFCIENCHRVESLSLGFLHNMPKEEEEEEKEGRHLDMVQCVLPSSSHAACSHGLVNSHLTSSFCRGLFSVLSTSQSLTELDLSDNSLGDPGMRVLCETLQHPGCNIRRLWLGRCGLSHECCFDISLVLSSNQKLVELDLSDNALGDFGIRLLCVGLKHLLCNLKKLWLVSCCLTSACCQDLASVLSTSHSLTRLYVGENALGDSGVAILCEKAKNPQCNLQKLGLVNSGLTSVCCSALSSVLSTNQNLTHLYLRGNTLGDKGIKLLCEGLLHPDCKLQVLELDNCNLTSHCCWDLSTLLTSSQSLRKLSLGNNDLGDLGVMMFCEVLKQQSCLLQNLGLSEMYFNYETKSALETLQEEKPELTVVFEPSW
observable: IC50

Asked: Which measured IC50 value corresponds to Cn1nc(S(=O)(=O)[N-]C(=O)Nc2c3c(cc4c2CCC4)CCC3)cc1C[N+](C)(C)C [Example 44] ?
Given back: < 400 nM

Asked: Also CC(C)c1cc(F)cc(C(C)C)c1NC(=O)NS(=O)(=O)c1cc(CN2CCCC2)n(C)n1 [Example 81] , if possible.
Given back: < 400 nM

Asked: Also CN(C)CCc1cc(S(=O)(=O)NC(=O)Nc2c3c(cc4c2CCC4)CCC3)nn1C [Example 59] , if possible.
Given back: 800 to 1600 nM

Asked: Also CCn1nc(S(=O)(=O)NC(=O)Nc2c(-c3cccnc3)cc(F)c3c2CCC3)cc1CN(C)C [Example 20] , if possible.
Given back: < 400 nM

Asked: Also CC(c1cc(S(=O)(=O)NC(=O)Nc2c3c(cc4c2CCC4)CCC3)nn1C)N1CCC1 (single isomer, unassigned; enantiomer 1) [Example 26] , if possible.
Given back: < 400 nM

Asked: Also CC(c1cc(S(=O)(=O)NC(=O)Nc2c3c(cc4c2CCC4)CCC3)nn1C1CC1)N1CCC1 (stereo not shown) [Example 25] , if possible.
Given back: < 400 nM

Asked: Also CC(C)c1cc(F)cc(-c2cccc(C#N)c2)c1NC(=O)NS(=O)(=O)c1cc(CN(C)C)n(C(C)C)n1 [Example 45] , if possible.
Given back: 800 to 1600 nM

----------
pIC50 by entry:
target: NLRP3 (Homo sapiens); test: THP-1 cells pyroptosis assay (LPS + nigericin, resazurin readout); format: cell-based; set-up: Seed THP-1 cells (25,000 cells/well) containing 1.0 μg/ml LPS in 40 μl of RPMI medium; host or cells: THP-1 cells; conditions: NLRP3 inhibitory activity, 1.0 μg/ml LPS, 5 μM nigericin
pIC50: −log10 of the molar value. Counter-ions that a name gives are not always drawn.

CC(C)c1cc(Cl)cc(C(C)C)c1NC(=O)NS(=O)(=O)c1cc(CN2CCOCC2)n(C)n1 [Example 120, Sodium Salt]	5.59 to 6.19
CC(C)n1nc(S(=O)(=O)NC(=O)Nc2c3c(cc4c2CCC4)CCC3)nc1CN(C)C	> 7.40
O=C(Nc1c2c(cc3c1CCC3)CCC2)NS(=O)(=O)c1cc(CN2CCC2)n(C2CC2)n1	6.80 to 7.40

Asked: Which measured pIC50 value corresponds to Cn1nc(S(=O)(=O)NC(=O)Nc2c3c(cc4c2CCC4)CCC3)cc1CN1CC(F)C1 ?
Given back: 6.19 to 6.80

----------
target: NLRP3 (Homo sapiens); experiment: Human whole blood IL1β release assay (LPS + nigericin, AlphaLisa IL-1β); type: cell-based; set-up: Human whole blood in Li-heparin tubes was obtained from healthy donors from a volunteer donor panel; from tissue; host or cells: human whole blood from healthy donors; settings: NLRP3 inhibitory activity, 1 μg/ml LPS, 10 μM nigericin, IL-1β release, read-out: HWB IC50
Counter-ions that a name gives are not always drawn.
observable: IC50

CCn1nc(S(=O)(=O)NC(=O)Nc2c3c(cc4c2CCC4)CCC3)cc1CN(C)C	< 400 nM

Asked: For NLRP3 (Homo sapiens), provide IC50 of CC(C)c1cc(F)cc(-c2cnn(C)c2)c1NC(=O)NS(=O)(=O)c1cc(C(=O)N(C)C)n(C)n1 [Example 128, Sodium Salt] please.
Given back: < 400 nM

Asked: Also CCn1nc(S(=O)(=O)NC(=O)Nc2c(-c3ccnc(C#N)c3)cc(F)cc2C(C)C)cc1CN(C)C , if possible.
Given back: < 400 nM

Asked: Also CC(C)n1nc(S(=O)(=O)NC(=O)Nc2c3c(cc4c2CCC4)CCC3)cc1CN(C)CC(F)F [Example 56, Sodium Salt] , if possible.
Given back: 3200 to 10000 nM

Asked: Also CC(C)c1cc(S(=O)(=O)NC(=O)Nc2c3c(cc4c2CCC4)CCC3)nn1CCN(C)C , if possible.
Given back: 800 to 1600 nM

Asked: Also CN(C)Cc1cc(S(=O)(=O)NC(=O)Nc2c3c(cc4c2CCC4)CCC3)nn1C1CC1 , if possible.
Given back: 400 to 800 nM

Asked: Also COc1cc(-c2cc(F)cc(C(C)C)c2NC(=O)NS(=O)(=O)c2cc(CN(C)C)n(C(C)C)n2)ccn1 , if possible.
Given back: < 400 nM

Asked: Also CC(c1cc(S(=O)(=O)NC(=O)Nc2c3c(cc4c2CCC4)CCC3)nn1C)N(C)C (single isomer, unassigned; enantiomer 1) [Example 69] , if possible.
Given back: < 400 nM

Asked: Also CC(C)c1cc(F)cc(C2CCOCC2)c1NC(=O)NS(=O)(=O)c1cc(C(=O)N(C)C)n(C)n1 [Example 126, Sodium Salt] , if possible.
Given back: 400 to 800 nM

Asked: Also CC(C)c1cc(Cl)cc(C(C)C)c1NC(=O)NS(=O)(=O)c1cc(CN(C)C)n(C(C)C)n1 , if possible.
Given back: 1600 to 3200 nM

Asked: Also CC(C)N(C)Cc1cc(S(=O)(=O)NC(=O)Nc2c3c(cc4c2CCC4)CCC3)nn1C , if possible.
Given back: 400 to 800 nM

Asked: Also CC(C)c1cc(F)cc(C(C)C)c1NC(=O)NS(=O)(=O)c1cc(CN2CC(F)C2)n(C)n1 , if possible.
Given back: 800 to 1600 nM

Asked: Also CCC(c1cc(S(=O)(=O)NC(=O)Nc2c3c(cc4c2CCC4)CCC3)nn1C1CC1)N1CCC1 (centres unmarked) , if possible.
Given back: < 400 nM

Asked: Also CCn1nc(S(=O)(=O)NC(=O)Nc2c(-c3ccnc(OC)c3)ccc3c2CCC3)cc1CN(C)C , if possible.
Given back: < 400 nM

Asked: Also CC(C)(C)n1nc(S(=O)(=O)NC(=O)Nc2c3c(cc4c2CCC4)CCC3)cc1CN1CCC1 , if possible.
Given back: 1600 to 3200 nM

Asked: Also CCN(C)Cc1cc(S(=O)(=O)NC(=O)Nc2c3c(cc4c2CCC4)CCC3)nn1C , if possible.
Given back: 400 to 800 nM

Asked: Also CN(C)C1CCCn2nc(S(=O)(=O)NC(=O)Nc3c4c(cc5c3CCC5)CCC4)cc21 (centres unmarked) , if possible.
Given back: 400 to 800 nM

Asked: Also CN(C)C(c1cc(S(=O)(=O)NC(=O)Nc2c3c(cc4c2CCC4)CCC3)nn1C)C(F)(F)F (centres unmarked) , if possible.
Given back: 800 to 1600 nM

Asked: Also CN(C)CCn1nc(S(=O)(=O)NC(=O)Nc2c3c(cc4c2CCC4)CCC3)cc1C(C)(C)O , if possible.
Given back: 400 to 800 nM

Asked: Also COCCN(CCOC)C(=O)c1cc(S(=O)(=O)NC(=O)Nc2c(-c3ccnc(OC(C)C)c3)cc(F)cc2C(C)C)nn1C [Example 174, sodium salt] , if possible.
Given back: 3200 to 10000 nM

Asked: Also CCn1nc(S(=O)(=O)NC(=O)Nc2c(C(C)C)cc(F)cc2C(C)C)cc1CN(C)C , if possible.
Given back: < 400 nM

Asked: Also COCCN(CCO)C(=O)c1cc(S(=O)(=O)NC(=O)Nc2c3c(cc4c2CCC4)CCC3)nn1C [Example 102, ammonium Salt] , if possible.
Given back: 400 to 800 nM

Asked: Also CC(C)c1cc(F)cc(C(C)C)c1NC(=O)NS(=O)(=O)c1cc(CN(C)CCO)n(C)n1 , if possible.
Given back: < 400 nM

Asked: Also CCn1nc(S(=O)(=O)NC(=O)Nc2c3c(cc4c2CCO4)CCC3)cc1CN(C)C , if possible.
Given back: 400 to 800 nM

Asked: Also CCC(c1cc(S(=O)(=O)NC(=O)Nc2c3c(cc4c2CCC4)CCC3)nn1C)N(C)C (single isomer, unassigned; enantiomer 1) [Example 71] , if possible.
Given back: < 400 nM

Asked: Also COc1cc(-c2ccc3c(c2NC(=O)NS(=O)(=O)c2cc(C4CCCN4C)n(C(C)C)n2)CCC3)ccn1 (centres unmarked) , if possible.
Given back: 800 to 1600 nM

Ref: patent US11542255B2
